Reported activity at 1 µM is given for each of the following compounds.
Target: CXCR4 (Homo sapiens)
Assay: Chemotaxis assay using SUP B-15 cells
Type: cell-based
Set-up: A similar procedure was followed for chemotaxis using SUP B-15 cells; endogenous in cells; host or cells: SUP B-15 cells
Conditions: SUP-B15; Table 18, i1 loop; SUP B-15 cells; drug conc 1.0 uM; read-out: AUC (% of)
Peptide text beside a SMILES is read from it. * marks the point of attachment. Palmitoyl = CCCCCCCCCCCCCCCC(=O)*
measurement-type: activity at 1 µM (%)

1. CCCCCCCCCCCCCCCC(=O)N[C@@H](CCCCN)C(=O)N[C@@H](CCCCN)C(=O)N[C@@H](CC(C)C)C(=O)N[C@@H](CCCNC(=N)N)C(=O)N[C@@H](CO)C(=O)N[C@@H](CCSC)C(=O)N[C@H](C(=O)N[C@@H](CC(=O)O)C(=O)N[C@@H](CCCCN)C(=O)N[C@@H](Cc1ccc(O)cc1)C(N)=O)[C@@H](C)O [Compound 46] (Palmitoyl-KKLRSMTDKY-NH2)
87.2
2. CCCCCCCCCCCCCCCC(=O)N[C@H](C(=O)N[C@@H](CCSC)C(=O)NCC(=O)N[C@@H](Cc1ccc(O)cc1)C(=O)N[C@@H](CCC(N)=O)C(=O)N[C@@H](CCCCN)C(=O)N[C@@H](CCCCN)C(=O)N[C@@H](CC(C)C)C(=O)N[C@@H](CCCNC(=N)N)C(=O)N[C@@H](CO)C(=O)N[C@@H](CCSC)C(=O)N[C@H](C(=O)N[C@@H](CC(=O)O)C(N)=O)[C@@H](C)O)C(C)C [Compound 35] (Palmitoyl-VMGYQKKLRSMTD-NH2)
31.7
3. CCCCCCCCCCCCCCCC(=O)N[C@@H](CCCCN)C(=O)N[C@@H](CCCCN)C(=O)N[C@@H](CC(C)C)C(=O)N[C@@H](CCCNC(=N)N)C(=O)N[C@@H](CO)C(=O)N[C@@H](CCSC)C(=O)N[C@H](C(=O)N[C@@H](CC(=O)O)C(=O)N[C@@H](CCCCN)C(=O)N[C@@H](Cc1ccc(O)cc1)C(=O)N[C@@H](CCCNC(=N)N)C(=O)N[C@@H](CC(C)C)C(N)=O)[C@@H](C)O [Compound 44, Pal-KKLRSMTDKYRL-amide] (Palmitoyl-KKLRSMTDKYRL-NH2)
25.9
4. CCCCCCCCCCCCCCCC(=O)N[C@@H](CCCCN)C(=O)N[C@@H](CCCCN)C(=O)N[C@@H](CC(C)C)C(=O)N[C@@H](CCCNC(=N)N)C(=O)N[C@@H](CO)C(=O)N[C@@H](CCSC)C(=O)N[C@H](C(=O)N[C@@H](CC(=O)O)C(=O)N[C@@H](CCCCN)C(=O)N[C@@H](Cc1ccc(O)cc1)C(=O)N[C@@H](CCCNC(=N)N)C(N)=O)[C@@H](C)O [Compound 45] (Palmitoyl-KKLRSMTDKYR-NH2)
178

* * *

Reported Peak Ratio is given for each of the following molecules.
Target: CXCR4 (Homo sapiens, UniProt P61073)
Sequence (P61073 whole entry): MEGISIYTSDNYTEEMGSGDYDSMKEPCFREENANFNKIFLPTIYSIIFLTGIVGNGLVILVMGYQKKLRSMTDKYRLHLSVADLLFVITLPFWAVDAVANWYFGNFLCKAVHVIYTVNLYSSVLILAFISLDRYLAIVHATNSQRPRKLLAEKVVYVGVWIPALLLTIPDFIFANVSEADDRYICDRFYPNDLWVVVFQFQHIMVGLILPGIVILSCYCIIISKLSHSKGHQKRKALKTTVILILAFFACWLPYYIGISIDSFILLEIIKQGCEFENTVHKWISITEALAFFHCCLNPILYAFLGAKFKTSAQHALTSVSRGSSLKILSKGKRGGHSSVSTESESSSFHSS
Assay: Chemotaxis assay, effect on SDF1-a (CXCL12) induced migration of CCRF-CEM cells
Assay type: cell-based
Set-up: a human T-cell ALL line that endogenously expresses CXCR4; endogenous in cells; host or cells: CCRF-CEM (human T-cell ALL line)
Conditions: Table 20, i3 loop; CEM cells; conc 1.0 uM; peak test compound/peak control
Square brackets hold non-standard residues; d marks the D form. Peptide text beside a SMILES is read from it. * marks the point of attachment. ξ: configuration not given here. Biotin = O=C1N[C@H]2[C@H](CS[C@H]2CCCCC(=O)*)N1; ξGly(nC16H33) = CCCCCCCCCCCCCCCCC(N)C(=O)O; Palmitoyl = CCCCCCCCCCCCCCCC(=O)*
measurement-type: Peak Ratio

1. CCCCCCCCCCCCCCCCC(NC(=O)CCCC[C@@H]1SC[C@@H]2NC(=O)N[C@@H]21)C(=O)N[C@@H](Cc1cnc[nH]1)C(=O)N[C@@H](CO)C(=O)N[C@@H](CCCCN)C(=O)NCC(=O)N[C@@H](Cc1cnc[nH]1)C(=O)N[C@@H](CCC(N)=O)C(=O)N[C@@H](CCCCN)C(=O)N[C@@H](CCCNC(=N)N)C(=O)N[C@@H](CCCCN)C(=O)N[C@@H](C)C(=O)N[C@@H](CC(C)C)C(=O)N[C@@H](CCCCN)C(N)=O (some centres unmarked) [Compound 87] (Biotin-[ξGly(nC16H33)]HSKGHQKRKALK-NH2)
0.2
2. CCCCCCCCCCCCCCCC(=O)N[C@@H](CC(C)C)C(=O)N[C@@H](CO)C(=O)N[C@@H](Cc1cnc[nH]1)C(=O)N[C@@H](CO)C(=O)N[C@@H](CCCCN)C(=O)NCC(=O)N[C@@H](Cc1cnc[nH]1)C(=O)N[C@@H](CCC(N)=O)C(=O)N[C@@H](CCCCN)C(=O)N[C@@H](CCCNC(=N)N)C(=O)N[C@@H](CCCCN)C(=O)N[C@@H](C)C(=O)N[C@@H](CC(C)C)C(=O)N[C@@H](CCCCN)C(N)=O [Compound 95] (Palmitoyl-LSHSKGHQKRKALK-NH2)
1

* * *

Reported Peak Test Compound is given for each of the following molecules.
Molecular target: CXCR4 (Homo sapiens, UniProt P61073)
Experiment: Chemotaxis assay, effect on SDF1-a (CXCL12) induced migration of CCRF-CEM cells
Assay type: cell-based
Design: a human T-cell ALL line that endogenously expresses CXCR4; endogenous in cells; host or cells: CCRF-CEM (human T-cell ALL line)
Conditions: Table 20, i3 loop; CEM cells; conc 1.0 uM
Peptide text beside a SMILES is read from it. * marks the point of attachment. Palmitoyl = CCCCCCCCCCCCCCCC(=O)*
measurement-type: Peak Test Compound

1) CCCCCCCCCCCCCCCC(=O)N[C@@H](CCCCN)C(=O)N[C@@H](CC(C)C)C(=O)N[C@@H](CO)C(=O)N[C@@H](Cc1cnc[nH]1)C(=O)N[C@@H](CO)C(=O)N[C@@H](CCCCN)C(=O)NCC(=O)N[C@@H](Cc1cnc[nH]1)C(=O)N[C@@H](CCC(N)=O)C(=O)N[C@@H](CCCCN)C(=O)N[C@@H](CCCNC(=N)N)C(=O)N[C@@H](CCCCN)C(=O)N[C@@H](C)C(N)=O [Compound 94] (Palmitoyl-KLSHSKGHQKRKA-NH2)
1 nM
2) CCCCCCCCCCCCCCCC(=O)N[C@@H](CCCCN)C(=O)N[C@@H](CC(C)C)C(=O)N[C@@H](CO)C(=O)N[C@@H](Cc1cnc[nH]1)C(=O)N[C@@H](CO)C(=O)N[C@@H](CCCCN)C(=O)NCC(=O)N[C@@H](Cc1cnc[nH]1)C(=O)N[C@@H](CCC(N)=O)C(=O)N[C@@H](CCCCN)C(=O)N[C@@H](CCCNC(=N)N)C(=O)N[C@@H](CCCCN)C(=O)N[C@@H](C)C(=O)N[C@@H](CC(C)C)C(N)=O [Compound 93] (Palmitoyl-KLSHSKGHQKRKAL-NH2)
0.2 nM
3) CCCCCCCCCCCCCCCC(=O)N[C@@H](Cc1cnc[nH]1)C(=O)N[C@@H](CO)C(=O)N[C@@H](CCCCN)C(=O)NCC(=O)N[C@@H](Cc1cnc[nH]1)C(=O)N[C@@H](CCC(N)=O)C(=O)N[C@@H](CCCCN)C(=O)N[C@@H](CCCNC(=N)N)C(=O)N[C@@H](CCCCN)C(=O)N[C@@H](C)C(=O)N[C@@H](CC(C)C)C(=O)N[C@@H](CCCCN)C(=O)N[C@H](C(=O)N[C@H](C(=O)N[C@H](C(=O)N[C@H](C(N)=O)[C@@H](C)CC)C(C)C)[C@@H](C)O)[C@@H](C)O [Compound 100] (Palmitoyl-HSKGHQKRKALKTTVI-NH2)
0.2 nM

* * *

Molecular target: CXCR4 (Homo sapiens)
Test: Chemotaxis assay, effect on SDF1-a (CXCL12) induced migration of CCRF-CEM cells
Assay type: cell-based
Design: a human T-cell ALL line that endogenously expresses CXCR4; endogenous in cells; host or cells: CCRF-CEM (human T-cell ALL line)
Conditions: CCRF-CEM, Table 18, i1 loop; CEM cells; drug conc 1.0 uM; read-out: AUC (% of)
Peptide text beside a SMILES is read from it. * marks the point of attachment. Palmitoyl = CCCCCCCCCCCCCCCC(=O)*; NHhexadecyl = CCCCCCCCCCCCCCCCN*
measurement-type: activity at 1 µM (%)

1) CCCCCCCCCCCCCCCC(=O)N[C@@H](CCCCN)C(=O)N[C@@H](CCCCN)C(=O)N[C@@H](CC(C)C)C(=O)N[C@@H](CCCNC(=N)N)C(=O)N[C@@H](CO)C(=O)N[C@@H](CCSC)C(=O)N[C@H](C(=O)N[C@@H](CC(=O)O)C(=O)N[C@@H](CCCCN)C(=O)N[C@@H](Cc1ccc(O)cc1)C(=O)N[C@@H](CCCNC(=N)N)C(=O)N[C@@H](CC(C)C)C(=O)N[C@@H](Cc1cnc[nH]1)C(=O)N[C@@H](CC(C)C)C(=O)N[C@@H](CO)C(=O)N[C@H](C(N)=O)C(C)C)[C@@H](C)O [Compound 41] (Palmitoyl-KKLRSMTDKYRLHLSV-NH2)
66.7
2) CCCCCCCCCCCCCCCC(=O)N[C@@H](CO)C(=O)NCC(=O)N[C@@H](Cc1ccc(O)cc1)C(=O)N[C@@H](CCC(N)=O)C(=O)N[C@@H](CCCCN)C(=O)N[C@@H](CCCCN)C(=O)N[C@@H](CC(C)C)C(=O)N[C@@H](CCCNC(=N)N)C(=O)N[C@@H](CO)C(=O)N[C@@H](CO)C(=O)N[C@H](C(=O)N[C@@H](CC(=O)O)C(N)=O)[C@@H](C)O [Compound 69] (Palmitoyl-SGYQKKLRSSTD-NH2)
100
3) CCCCCCCCCCCCCCCC(=O)N[C@@H](CCSC)C(=O)NCC(=O)N[C@@H](Cc1ccc(O)cc1)C(=O)N[C@@H](CCC(N)=O)C(=O)N[C@@H](CCCCN)C(=O)N[C@@H](CCCCN)C(=O)N[C@@H](CC(C)C)C(=O)N[C@@H](CCCNC(=N)N)C(=O)N[C@@H](CO)C(=O)N[C@@H](CCSC)C(=O)N[C@H](C(=O)N[C@@H](CC(=O)O)C(=O)N[C@@H](CCCCN)C(=O)N[C@@H](Cc1ccc(O)cc1)C(=O)N[C@@H](CCCNC(=N)N)C(=O)N[C@H](C(N)=O)[C@@H](C)CC)[C@@H](C)O [Compound 49] (Palmitoyl-MGYQKKLRSMTDKYRI-NH2)
50.9
4) CCCCCCCCCCCCCCCCNC(=O)[C@H](CCCCN)NC(=O)[C@H](CC(=O)O)NC(=O)[C@@H](NC(=O)[C@H](CCSC)NC(=O)[C@H](CO)NC(=O)[C@H](CCCNC(=N)N)NC(=O)[C@H](CC(C)C)NC(=O)[C@H](CCCCN)NC(=O)[C@H](CCCCN)NC(=O)[C@H](CCC(N)=O)NC(=O)[C@H](Cc1ccc(O)cc1)NC(=O)CNC(=O)[C@H](CCSC)NC(C)=O)[C@@H](C)O [Compound 59] (Ac-MGYQKKLRSMTDK-NHhexadecyl)
51.6
